Molecular target: KCNQ 2/3 channels (Homo sapiens, UniProt O43525+O43526)
Construct: expressed in transfected cells; host or cells: HEK293
Test: KCNQ 2/3 channel activation, thallium flux FLIPR assay (BTC-AM dye)
Format: cell-based
Settings: HEK293, maximum response relative to the response of 10 μM retigabine (set at 100%); HEK293 KCNQ2/KCNQ3 cells; read-out: % MAX
# maps each entry to its Emax

compound="Cc1cc(C)c(CC(=O)Nn2nc(N3CCOCC3)c3ccccc3c2=O)c(C)c1 [Example 168]" parameter=Emax result=1.91%
compound="CC(C)(C)OC(=O)NCc1nn(NC(=O)CC2CC3CCC2C3)c(=O)c2ccccc12 (racemic) [Example 44]" parameter=Emax result=116%
compound="C[C@@H]1CN(c2nn(NC(=O)CC(C)(C)c3ccccc3)c(=O)c3ccccc23)C[C@H](C)O1 [Example 89]" parameter=Emax result=183%

O=C(O)Cc1nn(NC(=O)Cc2ccc(Cl)cc2)c(=O)c2ccccc12 [Example 114] has a reported Emax of 3.72%

CC(C)(C)NC(=O)NCc1nn(NC(=O)Cc2ccc(Cl)cc2)c(=O)c2ccccc12 [Example 84] has a reported Emax of 40.8%

CC(C)COC(=O)NCc1nn(NC(=O)Cc2ccc(Cl)cc2)c(=O)c2ccccc12 [Example 185] has a reported Emax of 44.6%

CC(C)(C)OC(=O)c1nn(NC(=O)CC2CC3CCC2C3)c(=O)c2ccccc12 (racemic) [Example 94] has a reported Emax of 201%

N#Cc1ccc(S(=O)(=O)c2nn(NC(=O)Cc3ccc(Cl)cc3)c(=O)c3ccccc23)cc1 [Example 222] has a reported Emax of 90%
